testedTarget: UDP-N-acetylglucosamine 1-carboxyvinyltransferase (Escherichia coli K-12)
Sequence (P0A749 whole entry): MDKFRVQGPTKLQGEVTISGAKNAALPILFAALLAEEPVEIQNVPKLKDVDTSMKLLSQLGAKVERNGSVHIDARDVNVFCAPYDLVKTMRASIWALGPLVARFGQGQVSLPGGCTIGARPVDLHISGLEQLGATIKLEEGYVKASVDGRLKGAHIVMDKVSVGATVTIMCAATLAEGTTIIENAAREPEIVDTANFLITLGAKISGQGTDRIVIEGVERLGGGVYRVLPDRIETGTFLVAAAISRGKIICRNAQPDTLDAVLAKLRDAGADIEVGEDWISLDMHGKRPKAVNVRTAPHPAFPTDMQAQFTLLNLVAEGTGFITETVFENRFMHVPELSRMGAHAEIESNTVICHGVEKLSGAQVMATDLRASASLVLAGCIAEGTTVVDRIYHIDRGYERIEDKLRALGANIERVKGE
runDescription: Inhibition of Escherichia coli K12 Mur A in presence of UNAG
IC50 values for the molecules below.
Hi! Could you send only the number? It should be in µM, unit omitted.

Some solved entries appear below for comparison.
smilesData: C=C1C(=O)O[C@@H]2/C=C(\C)CC/C=C(/C)C[C@@H](OC(=O)/C(=C/CO)CO)[C@@H]12
value: 32.7
--
smilesData: C=C(CO)C(=O)O[C@H]1CC(=C)[C@@H]2C[C@H](O)C(=C)[C@@H]2[C@H]2OC(=O)C(=C)[C@@H]21
value: 19.5
--
smilesData: C=C1C(=O)O[C@@H]2/C=C(\CO)CC/C=C(\C)C[C@H](OC(=O)C(=C)[C@H](O)CO)[C@@H]12
value: 16.7

Proceeding to the next molecule to report its IC50.
Using the record for C[C@@H]1O[C@@H]1P(=O)(O)O , report its IC50.
0.118
